Items are presented alongside their recorded IC50.
target: CDK1/CCNB1 (Homo sapiens, UniProt P06493); assay: CDK1 homogeneous time-resolved fluorescence (HTRF) kinase assay; format: biochemical; conditions: 25-250 nM; CDK1/CCNB; read-out: CDK1/CCNB IC50, 25-250 nM
Sequence (P06493 whole entry): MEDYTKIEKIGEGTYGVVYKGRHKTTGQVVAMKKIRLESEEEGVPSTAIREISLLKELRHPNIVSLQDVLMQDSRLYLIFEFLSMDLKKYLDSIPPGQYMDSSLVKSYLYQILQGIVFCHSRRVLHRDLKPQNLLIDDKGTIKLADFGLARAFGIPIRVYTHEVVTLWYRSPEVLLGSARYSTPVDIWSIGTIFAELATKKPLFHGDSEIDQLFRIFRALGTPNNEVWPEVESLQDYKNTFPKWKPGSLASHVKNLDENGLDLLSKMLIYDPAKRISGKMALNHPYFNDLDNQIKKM
Sequence (P14635 whole entry partner): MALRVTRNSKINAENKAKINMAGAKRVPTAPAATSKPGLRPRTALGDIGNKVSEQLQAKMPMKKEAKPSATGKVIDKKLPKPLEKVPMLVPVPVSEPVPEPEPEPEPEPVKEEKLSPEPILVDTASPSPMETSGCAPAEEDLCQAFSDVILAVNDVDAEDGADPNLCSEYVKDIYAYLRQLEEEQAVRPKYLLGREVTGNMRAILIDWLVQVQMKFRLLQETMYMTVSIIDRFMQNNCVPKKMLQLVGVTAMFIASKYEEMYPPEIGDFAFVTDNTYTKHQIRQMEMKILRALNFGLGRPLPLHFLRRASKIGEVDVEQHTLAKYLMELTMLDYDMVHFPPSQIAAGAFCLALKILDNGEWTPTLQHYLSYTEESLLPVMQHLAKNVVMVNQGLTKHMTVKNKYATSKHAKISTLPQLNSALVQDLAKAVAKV
Test readout: IC50

{"columns": ["Molecule", "Result"],
 "data": [
  ["Cc1c(-c2nccc3cnc(Nc4ccc(NS(=O)(=O)c5ccccn5)cc4)cc23)ccc2c1cnn2CC(C)(C)O [Ex 768]", "25 to 250 nM"],
  ["Cc1c(-c2nccc3cnc(Nc4ccc(S(N)(=O)=O)cc4)cc23)ccc2c1cnn2CC(O)(C(F)(F)F)C(F)(F)F [Ex 726]", "25 to 250 nM"],
  ["Cc1cc(C)nc(NS(=O)(=O)c2ccc(Nc3cc4c(-c5ccc6c(cnn6CC(C)(C)O)c5C)nccc4cn3)cc2)n1 [Ex 926]", "25 to 250 nM"],
  ["Cc1c(-c2nccc3cnc(Nc4ccc(S(=O)(=O)NC5CCN(C)CC5)cc4)cc23)ccc2c1cnn2CC(C)(C)O [Ex 763]", "25 to 250 nM"],
  ["Cc1c(-c2nccc3cnc(Nc4ccc(S(=O)(=O)Nc5cccc(C(C)(C)O)n5)cc4)cc23)ccc2c1cnn2CC(C)(C)O [Ex 811]", "25 to 250 nM"],
  ["Cc1c(-c2nccc3cnc(Nc4ccc(S(=O)(=O)N(C)c5ncccn5)cc4)cc23)ccc2c1cnn2CC(C)(C)O [Ex 734]", "25 to 250 nM"],
  ["Cc1c(-c2nccc3cnc(Nc4ccc(NS(=O)(=O)c5cccnn5)cc4)cc23)ccc2c1cnn2CC(C)(C)O [Ex 754]", "25 to 250 nM"]
]}
